From: patent US9745310B2

The reader will find reported pEC50 values listed item by item below.
Biological target: UniProt P41594
Test: Calcium influx assay based on fluorescence (mGluR5 PAM activity)
Conditions: human mGluR5 receptor-overexpressed HEK293 cell line; L-glutamate EC20; Fluo-4, FLIPR
Protocol: Efficacy as a positive allosteric modulator (PAM) of mGluR5 of the compounds of the Examples was tested as follows: Calcium Influx Assay Based on Fluorescence Ca^2+ (calcium) influx assay is an experiment for measuring the activity of a positive allosteric modulator of mGluR5 receptor in which human mGluR5 receptor-overexpressed HEK293 cell line is used. […]
pEC50: −log10 of the molar value.

// known answers, use as guide
Molecule	pEC50
OCc1cc(F)ccc1-c1cnc2nc(COc3ccc(F)cc3)cn2c1 [Example 97]	6.30 to 7.00
COCc1cc(F)ccc1-c1cnc2nc(COc3ccccn3)cn2c1 [Example 141]	6.30 to 7.00
COc1c(F)cccc1-c1cnc2nc(COc3cc(F)ccn3)cn2c1 [Example 121]	6.30 to 7.00
COc1ccccc1-c1cnc2nc(COc3ccccc3)cn2c1 [Example 4]	6.30 to 7.00
Fc1ccc(-c2cnc3nc(COc4ccccc4)cn3c2)nc1 [Example 40]	6.30 to 7.00
Oc1cccc(-c2cnc3nc(COc4ccccc4)cn3c2)c1 [Example 17]	6.00 to 6.30
CSc1cc(F)ccc1-c1cnc2nc(COc3ccc(F)cc3)cn2c1 [Example 98]	6.30 to 7.00
Fc1ccc(-c2cnc3nc(COc4ccccc4)cn3c2)c(F)n1 [Example 33]	6.30 to 7.00
CSc1cc(F)ccc1-c1cnc2nc(COc3ccccc3)cn2c1 [Example 26]	6.30 to 7.00
Oc1ccccc1-c1cnc2nc(COc3ccccc3)cn2c1 [Example 16]	6.00 to 6.30

Challenge: Please report the recorded pEC50 for Fc1ccccc1-c1cnc2nc(COc3ccccc3)cn2c1 [Example 1] .
Response given: 6.30 to 7.00

Challenge: Please report the recorded pEC50 for COc1cc(C#N)ccc1-c1cnc2nc(COc3ccc(F)cc3)cn2c1 [Example 68] .
Response given: 6.30 to 7.00

Challenge: Please report the recorded pEC50 for Cc1ccncc1-c1cnc2nc(COc3ccccc3)cn2c1 [Example 32] .
Response given: 6.30 to 7.00

Challenge: Please report the recorded pEC50 for Fc1cccc(-c2cnc3nc(COc4ccccc4)cn3c2)c1F [Example 7] .
Response given: 6.30 to 7.00

Challenge: Please report the recorded pEC50 for FC(F)(F)c1cc(Cl)ccc1-c1cnc2nc(COc3ccccn3)cn2c1 [Example 145] .
Response given: 6.30 to 7.00

Challenge: Please report the recorded pEC50 for Fc1ccc(OCc2cn3cc(-c4ccc(C(F)(F)F)nc4)cnc3n2)nc1 [Example 131] .
Response given: 6.30 to 7.00

Challenge: Please report the recorded pEC50 for Fc1ccc(OCc2cn3cc(-c4ccc(C(F)(F)F)nc4)cnc3n2)cc1 [Example 65] .
Response given: 6.30 to 7.00

Challenge: Please report the recorded pEC50 for Cc1ccc(F)cc1-c1cnc2nc(COc3ccc(F)cc3)cn2c1 [Example 61] .
Response given: 6.00 to 6.30

Challenge: Please report the recorded pEC50 for Fc1ccc(-c2cnc3nc(COc4ccccc4)cn3c2)cn1 [Example 31] .
Response given: 6.30 to 7.00

Challenge: Please report the recorded pEC50 for Nc1cc(-c2cnc3nc(COc4ccc(F)cc4)cn3c2)ccc1F [Example 70] .
Response given: 6.30 to 7.00

Challenge: Please report the recorded pEC50 for Cc1ccc(N)cc1-c1cnc2nc(COc3ccccc3)cn2c1 [Example 11] .
Response given: 6.30 to 7.00

Challenge: Please report the recorded pEC50 for Fc1cccc(OCc2cn3cc(-c4ccncc4Cl)cnc3n2)c1 [Example 45] .
Response given: 6.30 to 7.00

Challenge: Please report the recorded pEC50 for Clc1cnccc1-c1cnc2nc(COc3ccccc3)cn2c1 [Example 36] .
Response given: 6.30 to 7.00

Challenge: Please report the recorded pEC50 for Fc1cc(OCc2cn3cc(-c4ccccc4F)cnc3n2)ccn1 [Example 166] .
Response given: 6.30 to 7.00

Challenge: Please report the recorded pEC50 for Fc1ccc(-c2cnc3nc(COc4ccncc4)cn3n2)c(F)c1 [Example 179] .
Response given: 6.30 to 7.00

Challenge: Please report the recorded pEC50 for Fc1ccc(-c2cnc3nc(COc4ccccn4)cn3n2)c(F)c1 [Example 180] .
Response given: 6.30 to 7.00

Challenge: Please report the recorded pEC50 for Cc1ccc(-c2cnc3nc(COc4ccc(F)cc4)cn3c2)c(F)c1 [Example 64] .
Response given: 6.00 to 6.30

Challenge: Please report the recorded pEC50 for Cc1cc(F)ccc1-c1cnc2nc(COc3cccc(F)n3)cn2n1 [Example 191] .
Response given: 6.00 to 6.30

---

The reader will find reported EC50 values listed item by item below.
Target: human mGluR5 receptor (Homo sapiens (Human))
Experiment: Calcium influx assay based on fluorescence (mGluR5 PAM activity)
Conditions: human mGluR5 receptor-overexpressed HEK293 cell line; L-glutamate EC20; Fluo-4, FLIPR

Challenge: Please report the recorded EC50 for Fc1ccc(-c2cnc3nc(COc4cccc(F)c4)cn3c2)nc1 [Example 93] .
Response given: 100 to 500 nM

Challenge: Please report the recorded EC50 for Fc1ccc(-c2cnc3nc(COc4ccccc4)cn3c2)cc1F [Example 19] .
Response given: 500 to 1000 nM

Challenge: Please report the recorded EC50 for Oc1ccccc1-c1cnc2nc(COc3ccnc(F)c3)cn2c1 [Example 169] .
Response given: 100 to 500 nM

---

The reader will find reported pEC50 values listed item by item below.
Biological target: human mGluR5 receptor (Homo sapiens (Human))
Assay: Calcium influx assay based on fluorescence (mGluR5 PAM activity)
Settings: human mGluR5 receptor-overexpressed HEK293 cell line; L-glutamate EC20; Fluo-4, FLIPR
pEC50: −log10 of the molar value.

// known answers, use as guide
Mol	Result
Fc1ccc(-c2cnc3nc(COc4ccnc(F)c4)cn3n2)c(F)c1	6.30 to 7.00
Cc1ccc(N)c(-c2cnc3nc(COc4cccc(F)c4)cn3c2)c1	6.00 to 6.30

Challenge: Please report the recorded pEC50 for COc1cc(F)ccc1-c1cnc2nc(COc3cc(F)ccn3)cn2c1 .
Response given: 6.30 to 7.00

Challenge: Please report the recorded pEC50 for Fc1ccnc(OCc2cn3cc(-c4cccc(F)c4F)cnc3n2)c1 .
Response given: 6.00 to 6.30

Challenge: Please report the recorded pEC50 for Nc1cc(-c2cnc3nc(COc4ccccc4)cn3c2)ccc1F .
Response given: 6.00 to 6.30

Challenge: Please report the recorded pEC50 for O=Cc1ccc(-c2cnc3nc(COc4ccccn4)cn3c2)c(C(F)(F)F)c1 .
Response given: 6.00 to 6.30

---

Molecular target: human mGluR5 receptor (Homo sapiens (Human), UniProt P41594)
Sequence (P41594 21-1212): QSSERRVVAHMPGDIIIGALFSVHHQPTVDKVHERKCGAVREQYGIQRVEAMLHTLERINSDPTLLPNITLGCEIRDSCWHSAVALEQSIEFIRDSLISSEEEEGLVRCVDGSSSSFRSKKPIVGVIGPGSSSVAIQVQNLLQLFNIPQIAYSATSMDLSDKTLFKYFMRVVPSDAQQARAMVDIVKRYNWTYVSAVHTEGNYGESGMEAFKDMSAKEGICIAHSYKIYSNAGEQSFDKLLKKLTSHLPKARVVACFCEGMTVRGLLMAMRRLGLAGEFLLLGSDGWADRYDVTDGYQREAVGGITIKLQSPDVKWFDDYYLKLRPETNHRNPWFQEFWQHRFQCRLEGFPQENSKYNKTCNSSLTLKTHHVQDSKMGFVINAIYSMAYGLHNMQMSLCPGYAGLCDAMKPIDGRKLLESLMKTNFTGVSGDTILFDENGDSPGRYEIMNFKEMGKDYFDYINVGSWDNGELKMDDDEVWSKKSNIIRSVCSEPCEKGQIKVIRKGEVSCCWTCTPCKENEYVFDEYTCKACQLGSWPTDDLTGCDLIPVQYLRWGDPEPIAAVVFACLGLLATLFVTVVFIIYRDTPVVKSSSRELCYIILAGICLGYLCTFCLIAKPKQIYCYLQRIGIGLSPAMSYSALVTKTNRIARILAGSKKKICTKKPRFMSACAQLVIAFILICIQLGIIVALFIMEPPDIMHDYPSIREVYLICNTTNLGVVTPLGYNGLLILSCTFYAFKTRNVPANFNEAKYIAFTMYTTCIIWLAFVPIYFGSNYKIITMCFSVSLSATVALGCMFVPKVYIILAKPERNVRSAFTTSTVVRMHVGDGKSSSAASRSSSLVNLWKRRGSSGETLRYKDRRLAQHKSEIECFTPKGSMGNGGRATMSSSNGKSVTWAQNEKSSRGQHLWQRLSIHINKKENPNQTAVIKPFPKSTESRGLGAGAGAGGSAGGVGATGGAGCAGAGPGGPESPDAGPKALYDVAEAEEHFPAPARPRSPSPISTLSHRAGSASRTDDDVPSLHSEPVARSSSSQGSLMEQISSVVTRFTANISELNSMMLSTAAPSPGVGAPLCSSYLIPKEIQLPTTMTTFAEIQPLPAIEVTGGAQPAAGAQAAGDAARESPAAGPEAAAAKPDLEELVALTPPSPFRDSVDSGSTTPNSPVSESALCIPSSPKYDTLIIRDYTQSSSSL
Assay: Calcium influx assay based on fluorescence (mGluR5 PAM activity)
Conditions: human mGluR5 receptor-overexpressed HEK293 cell line; L-glutamate EC20; Fluo-4, FLIPR
pEC50: −log10 of the molar value.
Measured parameter: pEC50

Compound	pEC50
FCc1cc(F)ccc1-c1cnc2nc(COc3ccc(F)cc3)cn2c1 [Example 199]	6.30 to 7.00
Nc1cc(Cl)ccc1-c1cnc2nc(COc3ccc(F)cc3)cn2c1 [Example 75]	6.30 to 7.00
CCc1ccccc1-c1cnc2nc(COc3ccccn3)cn2c1 [Example 115]	6.30 to 7.00
[2H]c1c([2H])c([2H])c(OCc2cn3cc(-c4ccc(F)cc4)cnc3n2)c([2H])c1[2H] [Example 59]	6.30 to 7.00
Cc1cc(F)ncc1-c1cnc2nc(COc3ccccc3)cn2c1 [Example 38]	6.30 to 7.00
Fc1ccc(-c2cnc3nc(COc4ccccn4)cn3c2)cc1 [Example 102]	6.30 to 7.00
Fc1ccc(-c2cnc3nc(COc4cccnc4)cn3c2)cc1 [Example 146]	6.00 to 6.30
Cc1ccccc1-c1cnc2nc(COc3ccccn3)cn2c1 [Example 103]	6.30 to 7.00

Challenge: Please report the recorded pEC50 for OCc1cc(F)ccc1-c1cnc2nc(COc3ccnc(F)c3)cn2c1 [Example 170] .
Response given: 6.30 to 7.00

Challenge: Please report the recorded pEC50 for Fc1ccc(-c2cnc3nc(COc4ccnc(F)c4)cn3c2)cc1 [Example 164] .
Response given: 6.30 to 7.00

Challenge: Please report the recorded pEC50 for Oc1ccccc1-c1cnc2nc(COc3ccc(F)cc3)cn2c1 [Example 63] .
Response given: 6.30 to 7.00

Challenge: Please report the recorded pEC50 for Oc1cc(F)ccc1-c1cnc2nc(COc3cccnc3)cn2c1 [Example 150] .
Response given: 6.00 to 6.30

Challenge: Please report the recorded pEC50 for COc1cc(F)ccc1-c1cnc2nc(COc3cccnc3)cn2c1 [Example 147] .
Response given: 6.00 to 6.30

Challenge: Please report the recorded pEC50 for Cc1c(F)cccc1-c1cnc2nc(COc3ccccn3)cn2n1 [Example 187] .
Response given: 6.30 to 7.00

Challenge: Please report the recorded pEC50 for Fc1ccc(-c2cnc3nc(COc4ccncc4)cn3c2)c(F)c1 [Example 152] .
Response given: 6.30 to 7.00
